- System: OVCAR-5 ovarian
- procedureText: NCI tumour cell line growth inhibition, 48 h
Overview of reported TGI across a group of molecules:
valueKind: TGI

[
  {
    "molecule": "O=C1CCCCCCCC/C=C/CCC(c2ccco2)O1 (stereo unspecified)",
    "testSystem": "OVCAR-5 ovarian",
    "result": "> 100 µM"
  },
  {
    "molecule": "CC(C)(C)C(=O)Nc1ccccc1I(=O)=O",
    "testSystem": "OVCAR-5 ovarian",
    "result": "> 100 µM"
  },
  {
    "molecule": "CCOc1cc2c(cnc3c4cc(OC)c(OC)cc4ccc23)cc1OC",
    "testSystem": "OVCAR-5 ovarian",
    "result": "> 100 µM"
  },
  {
    "molecule": "O=c1c(/C=C/c2c(O)ccc3ccccc23)nnc2sc(-c3cccc([N+](=O)[O-])c3)nn12",
    "testSystem": "OVCAR-5 ovarian",
    "result": "> 100 µM"
  },
  {
    "molecule": "Cc1ccc(S(=O)(=O)Nc2nc3ccccc3c(=O)n2C2CCCCC2)cc1",
    "testSystem": "OVCAR-5 ovarian",
    "result": "> 100 µM"
  },
  {
    "molecule": "N#Cc1ccc(OC(=O)c2ccc(N=C(N)N)cc2)cc1",
    "testSystem": "OVCAR-5 ovarian",
    "result": "> 100 µM"
  },
  {
    "molecule": "COc1ccc(-c2cc(C3CC3)nc(SCC(=O)O)c2C#N)cc1",
    "testSystem": "OVCAR-5 ovarian",
    "result": "> 100 µM"
  },
  {
    "molecule": "COc1ccc(C(=O)C(c2ccc(OC)cc2)C2(O)C(=O)Nc3c(C)cc(Cl)cc32)cc1 (stereo unspecified)",
    "testSystem": "OVCAR-5 ovarian",
    "result": "> 100 µM"
  },
  {
    "molecule": "Clc1ccc(-n2nnc(C3=NCCCN3)c2-c2ccccc2)cc1",
    "testSystem": "OVCAR-5 ovarian",
    "result": "> 100 µM"
  },
  {
    "molecule": "O=C1c2cc([N+](=O)[O-])cnc2S(=O)(=O)N1c1ccc(Br)cc1",
    "testSystem": "OVCAR-5 ovarian",
    "result": "> 100 µM"
  },
  {
    "molecule": "Cc1cccc(/C=N/NC(=S)N2CCCCCC2)n1",
    "testSystem": "OVCAR-5 ovarian",
    "result": "> 72.2 µM"
  },
  {
    "molecule": "COc1cc(C(=O)O[C@H](C(=O)NCCNC(=O)[C@@H](OC(=O)c2cc(OC)cc3c(C)cccc23)[C@]2(C)CO2)[C@]2(C)CO2)c2cccc(C)c2c1",
    "testSystem": "OVCAR-5 ovarian",
    "result": "2.08 µM"
  },
  {
    "molecule": "O=c1[nH]nc(Cc2ccccc2)n1/N=C/c1ccc([N+](=O)[O-])o1",
    "testSystem": "OVCAR-5 ovarian",
    "result": "26.1 µM"
  },
  {
    "molecule": "C=C(C)[C@@H]1CC[C@]2(CO)CC[C@]3(C)[C@H](CC[C@@H]4[C@@]5(C)CC[C@H](O)C(C)(C)[C@@H]5CC[C@]43C)[C@@H]12",
    "testSystem": "OVCAR-5 ovarian",
    "result": "> 100 µM"
  },
  {
    "molecule": "C=C1C[C@@H]2C/C=C/C(=O)C/C(C)=C\\C=C\\C(=O)O[C@H](C=O)C/C(C)=C/[C@H](C1)O2",
    "testSystem": "OVCAR-5 ovarian",
    "result": "13.5 µM"
  },
  {
    "molecule": "C=C(Cl)COC(=O)Nc1cccc(Cl)c1",
    "testSystem": "OVCAR-5 ovarian",
    "result": "> 100 µM"
  },
  {
    "molecule": "CN(C)NC1=NS(=O)(=O)c2cc3c(cc2S1)N(N(C)C)C(=O)c1cc2c(cc1N(N(C)C)C3=O)SC(NN(C)C)=NS2(=O)=O",
    "testSystem": "OVCAR-5 ovarian",
    "result": "> 10 µM"
  },
  {
    "molecule": "COc1ccc2c([nH]c3cc(O)c(C)cc32)c1C=O",
    "testSystem": "OVCAR-5 ovarian",
    "result": "> 25 µM"
  },
  {
    "molecule": "COc1ccc(OC)c(C(=O)/C=C/c2cc(O)c(O)cc2F)c1",
    "testSystem": "OVCAR-5 ovarian",
    "result": "38.9 µM"
  },
  {
    "molecule": "COc1ccc2c(c1)nc(N)c1c3cc(OC)c(OC)cc3cn21",
    "testSystem": "OVCAR-5 ovarian",
    "result": "18.8 µM"
  },
  {
    "molecule": "CCOC(=O)c1[nH]cnc1/N=N/N(C)N",
    "testSystem": "OVCAR-5 ovarian",
    "result": "> 100 µM"
  }
]

====

- Test system: DU-145 prostate
- procedureText: NCI tumour cell line growth inhibition, 48 h

[
  {
    "compound": "C=C(Cl)COC(=O)Nc1cccc(Cl)c1",
    "TGI": "> 100 µM"
  },
  {
    "compound": "COc1ccc(/C=C2\\Sc3nnc(C)n3N=C2c2cc(F)c(Cl)cc2Cl)cc1OC",
    "TGI": "27.8 µM"
  },
  {
    "compound": "CC1(C)CC(=O)C2=C(C1)NC(SCC(=O)O)=C(C#N)C2c1ccc(Br)cc1 (stereo not given)",
    "TGI": "> 100 µM"
  },
  {
    "compound": "CC(C)(C)C(=O)Nc1ccccc1I(=O)=O",
    "TGI": "> 100 µM"
  },
  {
    "compound": "CCCCCNC(=O)[C@@H]1CCCN2C(=O)CC[C@H](NC(=O)[C@H](Cc3ccc(OP(=O)(O)O)cc3)NC(C)=O)C(=O)N12",
    "TGI": "> 25 µM"
  }
]

====

- Test system: COLO 205 colon
- procedureText: NCI tumour cell line growth inhibition, 48 h
valueKind: TGI (µM)

[
  {
    "molecule": "CN(C)CC(/C(Cc1ccccc1)=N\\NC(=O)c1ccncc1)c1ccccc1 (configuration not stated)",
    "valueKind": "TGI",
    "readingQualifier": ">",
    "quantitativeReadout": 100
  },
  {
    "molecule": "OCc1c2c(cc3c1CC1(C3)Cc3cc4c(c(CO)c3C1)CCC4)CCC2",
    "valueKind": "TGI",
    "readingQualifier": "=",
    "quantitativeReadout": 42.4
  },
  {
    "molecule": "CCN(CC)CCOc1ccc(Nc2ncc3cc(-c4ccc(O)cc4)c(=O)n(C)c3n2)cc1",
    "valueKind": "TGI",
    "readingQualifier": "=",
    "quantitativeReadout": 17.2
  },
  {
    "molecule": "CCn1nc(-c2ccccc2)c2c1N(C)c1ccccc1-n1c(-c3ccccc3)nnc1-2",
    "valueKind": "TGI",
    "readingQualifier": "=",
    "quantitativeReadout": 48.5
  },
  {
    "molecule": "N#Cc1nc(C(F)(F)F)oc1N",
    "valueKind": "TGI",
    "readingQualifier": ">",
    "quantitativeReadout": 100
  },
  {
    "molecule": "COC(=O)c1c(O)ccc2c1c1c(n2Cc2ccc(OC)cc2)C(=O)c2ccccc2C1=O",
    "valueKind": "TGI",
    "readingQualifier": "=",
    "quantitativeReadout": 3.3
  },
  {
    "molecule": "Cc1ccc(S(=O)(=O)Nc2nc3ccccc3c(=O)n2C2CCCCC2)cc1",
    "valueKind": "TGI",
    "readingQualifier": ">",
    "quantitativeReadout": 100
  }
]

====

- Test system: SNB-19 CNS
- procedureText: NCI tumour cell line growth inhibition, 48 h; in the data active = GI50 below about 0.43 µM; inactive = the rest
Labels: y (active), n (inactive)

[
  {
    "compound": "COc1cc(Cl)cc(-c2nn(C(=O)NCCN3CCN(C)CC3)cc2-c2ccncc2)c1",
    "group": "n"
  },
  {
    "compound": "COc1cc2c(c(OC)c1OC)-c1ccc(SC)c(=O)cc1[C@@H](NC(=O)c1ccc(OC(C)=O)cc1)CC2",
    "group": "y"
  },
  {
    "compound": "Nc1ccc(C(=O)c2ccc(N)c(Br)c2)cc1Br",
    "group": "n"
  },
  {
    "compound": "O=C(Nc1ccc(-n2cc(-c3ccncc3)c(-c3ccc(O)c(Cl)c3)n2)cc1)c1cc(Cl)cc(Cl)c1",
    "group": "n"
  },
  {
    "compound": "CC1(C)OC[C@@H]([C@@]2(CO[Si](C)(C)C(C)(C)C)CC=CC(=O)O2)O1",
    "group": "n"
  },
  {
    "compound": "C[C@@H]1O[C@@H](O[C@@H]2[C@@H](O)[C@H](OCCc3ccc(O)c(O)c3)O[C@H](COC(=O)/C=C/c3ccc(O)c(O)c3)[C@H]2O)[C@H](O)[C@H](O)[C@H]1O",
    "group": "n"
  },
  {
    "compound": "COC(=O)NC/C=C\\c1nc(CC/C=C\\C(=O)OC2CC3CC(=O)O[C@H](/C=C/CC(C)C)C[C@H]4CCC(C)C(C[C@H](OC)CC(C2)O3)O4)co1 (some centres undefined)",
    "group": "n"
  },
  {
    "compound": "NCCCC(=O)Nc1ccncc1",
    "group": "n"
  },
  {
    "compound": "CCOC(=O)Cc1csc(/N=C2\\NC(=O)/C(=C3\\C(=O)N(C)c4ccccc43)S2)n1",
    "group": "n"
  }
]
